Attribution: patent US9663526B2

System: interferon alpha signalling (TYK2 and JAK1), STAT3 phosphorylation
Assay: Human whole blood INFα induced STAT3 phosphorylation assay
Format: cell-based
Details: compound 60 minutes at 37° C., IFNα 5000 U/ml for 15 minutes, pSTAT3 in lymphocyte population by flow cytometry, read-out: HWB IFN alpha IC50
measurement-label: pIC50
By convention, pIC50 is the negative base-10 log of a molar concentration.

Consider the reported pIC50 for these molecules:
CCn1cc(Nc2nccc(N3C[C@H]4CC[C@@H](C3)N4C(=O)[C@@H]3C[C@H]3C#N)n2)cn1 : 7.37
O=C([C@@H]1CC1(F)F)N1[C@@H]2CC[C@H]1CN(c1ccnc(Nc3cnc(N4CC[C@H](O)C4)c(F)c3)n1)C2 : 6.34
CCNC(=O)N1[C@@H]2CC[C@H]1CN(c1ccnc(Nc3cnc(C(=O)NC)c(Cl)c3)n1)C2 : 6.12

Field request: pIC50 | item: CNC(=O)c1ncc(Nc2nccc(N3C[C@H]4CC[C@@H](C3)N4C(=O)[C@@H]3CC3(F)F)n2)cc1C (single isomer, unassigned) 6.91

* * *

Reported pIC50 values for the following compounds.
System: interferon alpha signalling (TYK2 and JAK1), STAT3 phosphorylation
Assay: Human whole blood INFα induced STAT3 phosphorylation assay
Assay type: cell-based
Conditions: compound 60 minutes at 37° C., IFNα 5000 U/ml for 15 minutes, pSTAT3 in lymphocyte population by flow cytometry, read-out: HWB IFN alpha IC50
By convention, pIC50 is the negative base-10 log of a molar concentration.

Consider the reported pIC50 for these compounds:
Cn1cc(Nc2nccc(N3C[C@H]4CC[C@@H](C3)N4C3CN(S(C)(=O)=O)C3)n2)cn1 : 6.99
O=C([C@@H]1CC1(F)F)N1[C@@H]2CC[C@H]1CN(c1ccnc(Nc3cnc(CCO)c(F)c3)n1)C2 : 6.62
CNC(=O)c1ncc(Nc2nccc(N3C[C@H]4CC[C@@H](C3)N4C(=O)NCC(F)(F)F)n2)cc1C : 6.93

For the next question, use this compound.
Field request: pIC50 | item: Cn1cc(Nc2nccc(N3C[C@H]4CC[C@@H](C3)N4Cc3ccno3)n2)cn1 7.11

* * *

Tested on: interferon alpha signalling (TYK2 and JAK1), STAT3 phosphorylation
Test: Human whole blood INFα induced STAT3 phosphorylation assay;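 also: flow cytometry with anti-pSTAT3 staining, signal as percent-positive × mean fluorescence, baseline from unstimulated wells, 11-point dilution series, IC50 as inhibition of pSTAT3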
Assay type: cell-based
Details: compound 60 minutes at 37° C., IFNα 5000 U/ml for 15 minutes, pSTAT3 in lymphocyte population by flow cytometry, read-out: HWB IFN alpha IC50
Reported IC50 values for the following compounds.
Report the figure in nM without appending any unit label.

CNC(=O)c1ncc(Nc2nccc(N3C[C@H]4CC[C@@H](C3)N4Cc3ccno3)n2)cc1C : 287

Field request: IC50 | item: O=C(C1CC1)N1[C@@H]2CC[C@H]1CN(c1ccnc(Nc3cn[nH]c3)n1)C2 85

Also CNC(=O)c1ncc(Nc2nccc(N3C[C@H]4CC[C@@H](C3)N4C(=O)[C@@H]3CC3(F)F)n2)cc1F , if possible. 118

Also CC(CC#N)N1[C@@H]2CC[C@H]1CN(c1ccnc(Nc3cnn(C)c3)n1)C2 (stereo partly shown) , if possible. 112

* * *

Reported IC50 values for the following molecules.
Target: recombinant human kinase domain of JAK2 (Homo sapiens (Human), UniProt O60674)
Sequence (O60674 849-1124): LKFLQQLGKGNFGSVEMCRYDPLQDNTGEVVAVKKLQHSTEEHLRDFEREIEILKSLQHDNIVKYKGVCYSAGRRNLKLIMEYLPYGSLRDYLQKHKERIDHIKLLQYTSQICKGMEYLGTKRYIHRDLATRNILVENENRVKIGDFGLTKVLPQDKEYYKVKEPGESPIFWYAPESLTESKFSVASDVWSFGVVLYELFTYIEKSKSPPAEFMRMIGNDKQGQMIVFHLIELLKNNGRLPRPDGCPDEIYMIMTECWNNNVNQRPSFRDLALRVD
Assay: JAK Caliper enzyme assay at 1 mM ATP (JAK2);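 also: microfluidic mobility-shift read-out of fluorescent synthetic peptide phosphorylation, percent product converted from peak heights, room temperature, DMSO-only wells as uninhibited baseline, inhibition curve fit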
Assay type: biochemical
Report the figure in nM without appending any unit label.

Consider the reported IC50 for these molecules:
O=C([C@@H]1CC1(F)F)N1[C@@H]2CC[C@H]1CN(c1ccnc(Nc3cnc(N4CC[C@H](O)C4)c(F)c3)n1)C2 [Example 20] : 346
O=C(C1CC1)N1[C@@H]2CC[C@H]1CN(c1ccnc(Nc3cnsc3)n1)C2 [Example 52] : 1240
CNC(=O)c1ncc(Nc2nccc(N3C[C@H]4CC[C@@H](C3)N4C(=O)C3CC3)n2)cc1Cl [Example 30] : 2130

Field request: IC50 | item: CNC(=O)c1ncc(Nc2nccc(N3C[C@H]4CC[C@@H](C3)N4C(=O)[C@@H]3CC3(F)F)n2)cc1C (single isomer, unassigned) [Example 33] 116

Also O=C(C1CC1)N1[C@@H]2CC[C@H]1CN(c1ccnc(Nc3cn[nH]c3)n1)C2 [Example 49] , if possible. 614

Also O=C([C@@H]1CC1(F)F)N1[C@@H]2CC[C@H]1CN(c1ccnc(Nc3cn[nH]c3)n1)C2 [Example 51] , if possible. 97

Also Cn1cc(Nc2nccc(N3C[C@H]4CC[C@@H](C3)N4C[C@H]3CC3(F)F)n2)cn1 [Example 63] , if possible. 856
